# Target or system: T1, human FLT3 (hFLT3) (human, UniProt P36888 27-543)
# T1 construct: also called huFlt3; Fms-Like Tyrosine Kinase 3
# T1 sequence (looked up): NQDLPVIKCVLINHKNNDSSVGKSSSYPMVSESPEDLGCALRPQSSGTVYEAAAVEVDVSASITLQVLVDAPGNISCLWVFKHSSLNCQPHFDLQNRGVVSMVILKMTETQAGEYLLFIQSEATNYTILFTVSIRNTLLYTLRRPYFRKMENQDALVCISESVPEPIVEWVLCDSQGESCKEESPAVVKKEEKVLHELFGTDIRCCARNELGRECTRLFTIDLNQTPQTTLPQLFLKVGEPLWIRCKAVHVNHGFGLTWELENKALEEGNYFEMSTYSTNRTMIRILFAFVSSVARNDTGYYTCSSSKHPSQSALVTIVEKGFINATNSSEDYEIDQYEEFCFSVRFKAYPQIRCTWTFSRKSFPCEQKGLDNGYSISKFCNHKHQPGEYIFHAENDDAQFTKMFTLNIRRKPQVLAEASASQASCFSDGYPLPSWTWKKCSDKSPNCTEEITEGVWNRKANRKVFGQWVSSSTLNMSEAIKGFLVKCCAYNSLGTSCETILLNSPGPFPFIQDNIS
# Experiment: SPR (Biacore T200), 37 C; IgG captured on anti-human Fc, hFLT3 as analyte

{"Binder": "P12B6 (IgG format) (antibody, V domains shown, IgG format, captured by anti-human Fc) VH: QVQLVQSGAEVKKPGSSVKVSCKASGGTFMSYAISWVRQAPGQGLEWMGGIIPIFGIANYAQKFQGRVTITADKSTSTAYMELSSLRSEDTAVYYCARETLIYPIPFELWGQGTLVTVSS VL: EIVLTQSPGTLSLSPGERATLSCRASQIVSSSYLAWYQQKPGQAPRLLIYGASSRASGIPDRFSGSGSGTDFTLTISRLEPEDFAVYYCQQYGGSPYTFGQGTKVEIK", "Readout unit": "min", "t1/2": 1.3}
{"Binder": "P9F1 (IgG format) (antibody, V domains shown, IgG format, captured by anti-human Fc) VH: EVQLLESGGGLVQPGGSLRLSCAASGFIFSSFAMSWVRQAPGKGLEWVSDISGSGASTYYADSVKGRFTISRDNSKNTLYLQMNSLRAEDTAVYYCASASGGSGSYWPYMDPWGQGTLVTVSS VL: QSVLTQPPSASGTPGQRVTISCSGSGSNIGSNYVYWYQQLPGTAPKLLIYRNNQRPSGVPDRFSGSKSGTSASLAISGLRSEDEADYYCAAWDGSLSRPVFGTGTKLTVL", "Readout unit": "min", "t1/2": 0.5}
{"Binder": "P1B11 (IgG format) (antibody, V domains shown, IgG format, captured by anti-human Fc) VH: QVQLVQSGAEVKKPGSSVKVSCKASGGTFRSFDISWVRQAPGQGLEWMGRIIPILGYANYAQKFQGRVTITADESTSTAYMELSSLRSEDTAVYYCASDLGAPWAGYPFDPWGQGTLVTVSS VL: EIVLTQSPGTLSLSPGERATLSCRASQSVSSSELAWYQQKPGQAPRLLIYDASSRATGIPDRFSGSGSGTDFTLTISRLEPEDFAVYYCQQYDSSPLTFGQGTKVEIK", "Readout unit": "min", "t1/2": 2.1}
{"Binder": "P4C7 (IgG format) (antibody, V domains shown, IgG format, captured by anti-human Fc) VH: QVQLVQSGAEVKKPGSSVKVSCKASGGTFSSYTISWVRQAPGQGLEWMGGIIPAFGIANYAQKFQGRVTITADKSTSTAYMELSSLRSEDTAVYYCAKGGSYSLDYFDIWGQGTLVTVSS VL: EIVLTQSPGTLSLSPGERATLSCRASQYVSASLLAWYQQKPGQAPRLLIYGASTRATGIPDRFSGSGSGTDFTLTISRLEPEDFAVYYCQQYARSSTFGQGTKVEIK", "Readout unit": "min", "t1/2": 9.3}
